MEASURED_TARGET: K+ Channel (hERG) (Homo sapiens)
Construct: Eurofins
EXPERIMENT_SUMMARY: radioligand competition binding, [3H]Astemizole
TEST_SETTINGS: estimated from the % inhibition data
pIC50: −log10 of the molar value.
PROPERTY_LABEL: pIC50

Lab note: COc1cc(C(F)(F)F)c(OC)cc1[C@@H]1CCCNC1 [(S)-11] gave pIC50 of < 5.00

----------
MEASURED_TARGET: Nicotinic acetylcholine receptor (muscle-type) (Homo sapiens, UniProt P02708+P07510+Q07001)
Construct: Eurofins
EXPERIMENT_SUMMARY: radioligand competition binding, [125I]α-Bungarotoxin
PROPERTY_LABEL: IC50

In plain terms, COc1cc(C(F)(F)F)c(OC)cc1[C@@H]1CCCNC1 [(S)-11] has a documented IC50 of > 10 µM

----------
MEASURED_TARGET: Sigma receptor σ1 (Homo sapiens)
PROPERTY_LABEL: IC50

Record COc1cc(C(F)(F)F)c(OC)cc1[C@@H]1CCCNC1 [(S)-11] / Sigma receptor σ1 (Homo sapiens), IC50 recorded as 1 to 10 µM

----------
MEASURED_TARGET: human 5-HT2AR (Homo sapiens)
EXPERIMENT_SUMMARY: Ca2+/Fluo-4 assay, agonist mode, stable 5-HT2AR-HEK293 cells
TEST_SETTINGS: Table S2
# 5-HT2AR pEC50 ± S.E.M. per record follows
Please give only the number in your answer, with no unit.

Answered cases to consult:
MOLECULE	PROPERTY_LABEL	RECORDED_RESULT
CCSc1cc(OC)c(C2CCCNC2)cc1OC.Cl (stereo not drawn) [Compound 16eu]	5-HT2AR pEC50 ± S.E.M.	7.42
Br.COc1cc(C2CCNC2)c(OC)cc1Br (stereo not drawn) [Compound 5dis]	5-HT2AR pEC50 ± S.E.M.	8.11
COc1cc(C2CCCNC2)c(OC)cc1Cl (stereo not drawn) [Compound 8eu]	5-HT2AR pEC50 ± S.E.M.	7.18

Note to self: 5-HT2AR pEC50 ± S.E.M. recorded for COc1cc(C(F)(F)F)ccc1C1CCCNC1.Cl (stereo not drawn) [Compound 22dis] was 6.18

5-HT2AR pEC50 ± S.E.M. reported for this molecule CCOc1cc(C(F)(F)F)c(OCC)cc1C1CCCNC1.Cl (stereo not drawn) [Compound 26dis] : 5.52

Entry COc1cc(C2CCCNC2)ccc1C(F)(F)F.Cl (stereo not drawn) [Compound 23dis] — recorded 5-HT2AR pEC50 ± S.E.M. = 5.61

Notebook: COc1cc(C(F)(F)F)c(OC)cc1[C@H]1CCCN(C)C1 [(R)-19] , 5-HT2AR pEC50 ± S.E.M. read as 5.96

Please fill in: 5-HT2AR pEC50 ± S.E.M. reported for COc1cc(C2CCCNC2)c(OC)cc1I (stereo not drawn) [Compound 9eu, 3-(4-Iodo-2,5-dimethoxyphenyl)piperidine] = 7.43

Entry COc1cc(C2CCCNC2)c(OC)cc1C#N (stereo not drawn) [Compound 10eu] , 5-HT2AR pEC50 ± S.E.M. reported as 6.56

5-HT2AR pEC50 ± S.E.M. reported for this molecule COc1cc(C2CCCNC2)c(OC)cc1SC(C)C (stereo not drawn) [Compound 17dis] : 6.54

Per the records, this molecule ( COc1cc(C2CCCNC2)c(OC)cc1SC(C)C (stereo not drawn) [Compound 17eu] ) has 5-HT2AR pEC50 ± S.E.M. equal to 6.81

Briefly, 5-HT2AR pEC50 ± S.E.M. measured for CCc1cc(OC)c(C2CCCNC2)cc1OC.Cl (stereo not drawn) [Compound 13eu] : 7.39
